Test system: bovine serum albumin
Method notes: Anti-glycation effect: inhibition of glycation of bovine serum albumin by D-ribose, measured by fluorescence
Type: biochemical
Setup conditions: fluorescence corresponding to AGEs; BSA + D-ribose 100 mM, 37° C., four weeks; read-out: λex 370/λex 440 nm IC50
Procedure: A solution of bovine serum albumin at 5 or 10 mg/ml dissolved in phosphate-buffered saline is incubated at 37° C. for four weeks in the presence or absence of the test compounds at a concentration of between 20 and 160 μg/ml, and in the presence or absence of D-ribose at 100 mM. After this incubation, dialysis of each sample is performed for 24 hours against MilliQ water. […] The inhibition of glycation corresponds to a decrease in fluorescence compared with the glycated control (treated with sugar). […]
pIC50: −log10 of the molar value.
Cut-off 4 on pIC50, inclusive. At or above means Condition met; below means Condition not met.

Compound: O=C1c2cccc3cccc(c23)C(=O)N1O [Compound 5, N,N-(1,8-naphthaloyl)hydroxylamine]
Label class: Condition met

Compound: O=C1C=C(c2ccccc2)C(=O)N1O [Compound 3, N-hydroxy-2-phenylmaleimide]
Label class: Condition met

Compound: O=C1c2ccccc2C(=O)N1O [Compound 4, N-hydroxyphthalimide]
Label class: Condition not met

Compound: O=C1C=CC(=O)N1O [Compound 2, N-hydroxymaleimide]
Label class: Condition not met

# input for lookup
Task: Does the reported pIC50 for N=C(N)NN [Aminoguanidine, reference compound] fall at or above the 4 mark?
Output: Condition not met
